- experimental.system: Serine/threonine-protein kinase/endoribonuclease IRE1 (Homo sapiens, UniProt O75460)
- Sequence (O75460 whole entry, the tested form may be a part): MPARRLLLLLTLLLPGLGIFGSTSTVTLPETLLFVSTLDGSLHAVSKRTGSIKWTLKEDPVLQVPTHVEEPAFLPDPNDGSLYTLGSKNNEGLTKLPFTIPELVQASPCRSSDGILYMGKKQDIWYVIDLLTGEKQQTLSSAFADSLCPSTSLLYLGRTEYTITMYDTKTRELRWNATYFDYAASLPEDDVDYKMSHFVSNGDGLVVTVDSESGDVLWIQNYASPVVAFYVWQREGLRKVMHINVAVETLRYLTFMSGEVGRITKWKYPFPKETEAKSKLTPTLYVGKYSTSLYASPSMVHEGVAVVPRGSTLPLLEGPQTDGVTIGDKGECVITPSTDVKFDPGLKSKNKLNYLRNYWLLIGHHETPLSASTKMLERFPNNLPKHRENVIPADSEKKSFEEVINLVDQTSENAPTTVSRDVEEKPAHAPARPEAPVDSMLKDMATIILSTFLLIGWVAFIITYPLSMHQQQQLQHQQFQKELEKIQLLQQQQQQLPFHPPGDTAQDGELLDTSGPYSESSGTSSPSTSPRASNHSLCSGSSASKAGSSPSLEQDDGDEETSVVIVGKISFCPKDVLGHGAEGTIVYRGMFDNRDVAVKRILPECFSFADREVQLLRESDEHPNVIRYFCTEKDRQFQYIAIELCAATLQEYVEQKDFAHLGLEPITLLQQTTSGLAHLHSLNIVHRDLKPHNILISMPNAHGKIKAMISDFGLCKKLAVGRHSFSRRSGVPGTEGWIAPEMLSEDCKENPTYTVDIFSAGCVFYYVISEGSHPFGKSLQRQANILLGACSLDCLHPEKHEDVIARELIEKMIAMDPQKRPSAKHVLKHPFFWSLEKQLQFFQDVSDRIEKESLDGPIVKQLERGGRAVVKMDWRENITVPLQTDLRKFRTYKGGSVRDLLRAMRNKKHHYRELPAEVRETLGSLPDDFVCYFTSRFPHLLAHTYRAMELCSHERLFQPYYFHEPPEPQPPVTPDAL
- assay.text: Inhibition of IRE1alpha RNase activity (Q470 to L977 residues) (unknown origin) expressed in Sf9 cells using mini-XBP-1 stem-loop RNA as substrate measured every 2 mins interval for 50 mins by FRET assay
observed.property: IC50 (nM)

Some solved entries appear below for comparison.
Cc1ccc2c(NS(=O)(=O)c3ccccc3Cl)cccc2c1Oc1ncccc1-c1ccnc(N[C@@H]2CCCNC2)n1
420
O=S(=O)(Cc1ccccc1)Nc1c(F)cc(Oc2ncccc2-c2ccnc(N[C@@H]3CNC[C@@H](CF)C3)n2)c(F)c1F
15
CC(C)(C)c1nc(-c2ccc(NC(=O)Nc3cccc(C(F)(F)F)c3)c3ccccc23)c2c(N)nccn12
200
Cc1ccc2c(NS(=O)(=O)c3ccccc3Cl)cccc2c1Oc1ncccc1-c1ccnc(NC2CCC(=O)NC2)n1 (centres undefined)
2100
Cc1ccc(CNC(=O)N2CCC[C@]3(CCN(Cc4ccc(Cl)c(Cl)c4)C3)C2)cc1
46
O=S(=O)(Cc1ccccc1)Nc1c(F)cc(Oc2ncccc2-c2ccnc(N[C@@H]3CNC[C@H](CF)C3)n2)c(F)c1F
5.2
Cc1c(Oc2ncccc2-c2ccnc(N[C@H]3CCCNC3)n2)ccc(NS(=O)(=O)Cc2ccccc2)c1F
24
Cc1ccc2c(NS(=O)(=O)Cc3ccccc3)cccc2c1Oc1ncccc1-c1ccnc(N[C@H]2CCCNC2)n1
17

A. Cc1cc(NS(=O)(=O)Cc2ccccc2)c2ccccc2c1Oc1ncccc1-c1ccnc(N[C@H]2CCCNC2)n1
B. Cc1cc(NS(=O)(=O)Cc2ccccc2)c(F)cc1Oc1ncccc1-c1ccnc(N[C@H]2CCCNC2)n1
C. Cc1ccc2c(NS(=O)(=O)CCC(F)(F)F)c(F)ccc2c1Oc1ncccc1-c1ccnc(N[C@H]2CCCNC2)n1
Problem: In this exercise, place the 3 compounds in ascending sequence of their recorded IC50. List the labels, following the order given in the request.
Solution: C, A, B
